# Test system: NCI/ADR-RES ovarian
# testDetails: NCI tumour cell line growth inhibition, 48 h
metric: TGI

- CC(=O)Nc1ncc2c(n1)-c1ccccc1OC2c1ccccc1 (stereo not drawn): > 100 µM
- COc1ccc(NC(=S)C#N)cc1: > 100 µM
- O=C(Nc1ccc(Oc2ccc(NC(=O)Nc3ccccc3Cl)cc2)cc1)Nc1ccccc1Cl: > 63.8 µM

====

# Test system: HOP-62 NSCLC
# testDetails: NCI tumour cell line growth inhibition, 48 h
# GI50 values compiled below
metric: GI50

* O=C(/C=C\c1cc(Br)ccc1O)/C=C/c1cc(Br)ccc1O | 3.22 µM
* O=c1c2cccc(F)c2sc2c(NCCCNCCO)nc3ccccc3c12 | 1.54 µM
* O=C(COc1cccc(/C=C2\COc3ccccc3C2=O)c1)c1ccccc1 | 5.24 µM

Origin of measurements: PubChem BioAssay (NCI)
